Molecular target: RUNX1 (UniProt Q01196)
Sequence (Q01196 whole entry): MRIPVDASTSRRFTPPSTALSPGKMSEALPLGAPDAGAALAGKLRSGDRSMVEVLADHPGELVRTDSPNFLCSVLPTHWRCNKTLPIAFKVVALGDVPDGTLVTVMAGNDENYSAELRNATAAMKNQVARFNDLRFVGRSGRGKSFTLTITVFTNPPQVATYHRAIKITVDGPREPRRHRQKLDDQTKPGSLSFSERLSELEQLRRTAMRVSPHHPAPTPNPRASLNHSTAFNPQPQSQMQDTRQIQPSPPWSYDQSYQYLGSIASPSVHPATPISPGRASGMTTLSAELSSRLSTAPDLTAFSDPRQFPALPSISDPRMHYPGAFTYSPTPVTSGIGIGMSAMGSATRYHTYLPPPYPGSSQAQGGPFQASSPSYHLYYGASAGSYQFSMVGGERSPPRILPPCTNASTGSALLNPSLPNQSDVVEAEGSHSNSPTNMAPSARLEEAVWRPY
Test: RUNX1 binding intensity (PBM fluorescence), RUNX1 alone (arbitrary fluorescence units); higher = stronger binding;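 note: Full-length recombinant human RUNX1 bound to double-stranded 36-bp genomic probes on a high-density microarray, scored as Alexa488 fluorescence per spot via anti-RUNX1 antibody, median of four replicate spots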
Details: RUNX1 concentration 2 nM; ETS1 concentration 0 nM
value_type: RUNX1 binding intensity

{"residue_sequence": "CTACGACTTCCGTGATGCCTTGCGGTTGCTGTAGCC", "test_system": "RUNX1 (UniProt Q01196)", "value_type": "RUNX1 binding intensity", "numeric_result": 2700}
{"residue_sequence": "GTGGGTTTAGGATATGGGTGTGGTTTCTAATTGTCT", "test_system": "RUNX1 (UniProt Q01196)", "value_type": "RUNX1 binding intensity", "numeric_result": 885}
{"residue_sequence": "CCGGTCCGCTCGCCGGAAATGCGGGCTCTCCTGCCG", "test_system": "RUNX1 (UniProt Q01196)", "value_type": "RUNX1 binding intensity", "numeric_result": 815}
{"residue_sequence": "ACACAGGAAGGACGCACGCTCCCGCCCCAACCACAT", "test_system": "RUNX1 (UniProt Q01196)", "value_type": "RUNX1 binding intensity", "numeric_result": 901}
{"residue_sequence": "CTGTTTCCGAGTAAAGTAGGGTGTGTGGGTCACATG", "test_system": "RUNX1 (UniProt Q01196)", "value_type": "RUNX1 binding intensity", "numeric_result": 872}
{"residue_sequence": "GAAGGTTGTAGAGGAAGTGGTTTGTTCTTCCTCCTG", "test_system": "RUNX1 (UniProt Q01196)", "value_type": "RUNX1 binding intensity", "numeric_result": 837}
{"residue_sequence": "CAGAGAAACAGGAAGAACAGTGGTTTCAACTGAAAT", "test_system": "RUNX1 (UniProt Q01196)", "value_type": "RUNX1 binding intensity", "numeric_result": 783}
{"residue_sequence": "CTGTGCGAGGCAGGATGTGGTCTCCCGCCACCAGGG", "test_system": "RUNX1 (UniProt Q01196)", "value_type": "RUNX1 binding intensity", "numeric_result": 788}
{"residue_sequence": "ACGTACGGGATGTGGGAGGTTTGTTTTGACCACACC", "test_system": "RUNX1 (UniProt Q01196)", "value_type": "RUNX1 binding intensity", "numeric_result": 830}
{"residue_sequence": "GAAGCGGAAGTCGCTGAGGGGTGGTGAAGCGGTTGG", "test_system": "RUNX1 (UniProt Q01196)", "value_type": "RUNX1 binding intensity", "numeric_result": 710}
{"residue_sequence": "CGAACGCCGGACGTTCTGGGCACGTGACCGCCACCC", "test_system": "RUNX1 (UniProt Q01196)", "value_type": "RUNX1 binding intensity", "numeric_result": 863}
{"residue_sequence": "AGATGCAGAACAGGAAGTGGTTTAGAAAGCCACTCT", "test_system": "RUNX1 (UniProt Q01196)", "value_type": "RUNX1 binding intensity", "numeric_result": 827}
